biological target: T1, human LILRB2 expressed on cells (human, UniProt Q8N423 22-597); test: flow cytometry, CHO-LILRB2 cells
T1 construct: In 293T cells it was expressed from pCMV3-LILRB2-GFP; also called CHO-LILRB2; Jurkat-LILRB2
T1 sequence (Q8N423 other isoform, or with tags, fused parts or gaps limits assumed): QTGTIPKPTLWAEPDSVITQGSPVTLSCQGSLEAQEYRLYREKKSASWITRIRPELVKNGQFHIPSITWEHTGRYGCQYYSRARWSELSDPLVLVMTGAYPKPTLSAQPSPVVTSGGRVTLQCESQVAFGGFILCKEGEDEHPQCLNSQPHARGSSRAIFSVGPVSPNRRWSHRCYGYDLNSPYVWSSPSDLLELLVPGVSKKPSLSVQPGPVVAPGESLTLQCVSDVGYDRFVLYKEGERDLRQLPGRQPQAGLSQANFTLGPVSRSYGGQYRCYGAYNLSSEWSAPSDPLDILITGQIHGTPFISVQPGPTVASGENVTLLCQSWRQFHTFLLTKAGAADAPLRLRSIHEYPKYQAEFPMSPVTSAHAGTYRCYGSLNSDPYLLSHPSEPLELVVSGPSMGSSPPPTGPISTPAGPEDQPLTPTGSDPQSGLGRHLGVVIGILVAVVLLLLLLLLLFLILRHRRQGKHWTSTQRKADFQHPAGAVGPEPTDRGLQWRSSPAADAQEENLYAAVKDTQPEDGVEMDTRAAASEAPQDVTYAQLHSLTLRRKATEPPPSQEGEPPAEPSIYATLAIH
ASSAY_ENDPOINT: EC50 (mg/L)
# value in mg/L; strip the unit string

Known EC50 results, listed for orientation:
Query: EC50; subject: #27 (antibody, human IgG1, V domains shown, also called D2M002-027) VH: EVQLQQSGAELMKPGASVKISCKITGYTFSSYWIEWVKQRPGHDLEWIGEILPGSGSTNYNEKFKGKASFTADTSSNTAYMQLNSLTSEDSAVYYCARSGAGGYDSGAFAYWGQGTLVTVSA VL: DIVLTQSPASLAVSLGQRATISCRASESVDTYGNSFMHWYQQKPGQPPKLLIYRTSNLESGIPARFSGSGSRTDFTLTINPVEADDVATYYCQQSNEDPWTFGGGTKLEIK
0.435

Query: EC50; subject: #11 (antibody, human IgG1, V domains shown, also called D2M002-011) VH: EVQLQQSGAELMKPGASVKISCKATGYTFSNYWIEWVKQRPGHGLEWIGEILPGSGSTDYNEKFEGKATFTADTSSNTAYMQLSSLTSEDSAVYYCARSGAGGYDSGAFAYWGQGTLVTVSA VL: DIQMTQSPASLAVSLGQRATISCRASESVDTYGNSFMHWYQQKPGQPPKLLIYRTSNLESGIPARFSGSGSRTDFTLTINPVEADDVATYYCQQSNEDPWTFGGGTKLEIK
1.2

Query: EC50; subject: #22 (antibody, human IgG1, V domains shown, also called D2M002-022) VH: QVQLQQSGAELMKPGASVKISCKATGYTLSSYWIEWVKQRPGHGLEWIGEILPGSGSTNYNEKFKGKATFTADTSSNTAYMQLSSLTSEDSAVYYCARSGAGGYDSGAFAYWGQGTLVTVSA VL: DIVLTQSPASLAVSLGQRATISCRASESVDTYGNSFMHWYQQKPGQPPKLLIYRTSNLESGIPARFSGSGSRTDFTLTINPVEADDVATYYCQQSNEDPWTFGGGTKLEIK
0.911

Continuing:
Query: EC50; subject: #3 (antibody, human IgG1, V domains shown, also called D2M002-003) VH: QIQLLQSGPELVKPGASVKMSCKASGYTFTRYVMYWVKQKPGQGLEWIGYINPDNDGTKYNEKFKGKATLTSDKSSSTAYMELSSLTSEDSAVYYCARGDLELLPYYDYVRNAMDYWGQGTSVTVSS VL: DIQMTQSPASLSASVGETVTITCRASGNIHNYLAWYQQKQGKSPQLLVYNAKTLADGVPSRFSGSGSGTQYSLKINSLQPEDFGSYYCQHFWSTPPTFGGGTKLEIK
0.058

Query: EC50; subject: D2M002-044 (antibody, human IgG1, V domains shown, Hit; also called clone #44) VH: EVQLQQSGAELVRPGALVKLSCKGSGFNIKDYYMHWVRQRPEQGLEWIGWIDPENGNTVYAPKFQGKASITSDTSSNIAYLQFSSLTSEDTAVYYCARSRDHGAMDYWGQGTSVTVSS VL: DVQITQSPAIMSASPGEKVTLTCSASSSVSSSNLYWYQQKPGSSPKLWIYSTSNLASGVPARFSGSGFGTSYALTISSMEAEDAASYFCHQWSSYPYTFGGGTKLEIK
0.061
